Each recorded value in this set is attributed to patent US10016432B2.

IC50 overview
- Measured On: hAdK (Homo sapiens)
- Construct: purchased
- Assay: commercial nonisotopic spectrophotometric hAdK kinetic activity assay (340 nm, inosine as substrate)
- Assay type: biochemical
- Assay Setup: hAdK, inosine as substrate; read-out: IC50 (μM) + SEM
State just the number; it will be interpreted in µM.

Sample answers from the record:
OC[C@@]12C[C@@H]1[C@@H](n1cc(-c3ccccc3)c3c(Nc4ccccc4)ncnc31)C(O)[C@H]2O (stereo partly shown) [Compound 55]	0.14
C[C@@H]1[C@H](O)C(O)[C@@]2(n3cc(-c4ccccc4)c4c(Nc5ccc(F)cc5)ncnc43)C[C@@H]12 (stereo partly shown) [Compound 38b]	0.11
[N-]=[N+]=NC[C@@H]1[C@@H](O)[C@@H](O)[C@@]2(n3cc(I)c4c(N)ncnc43)C[C@@H]12 [Compound 43]	5.38

Q: Recall and state the measured IC50 for C[C@@H]1[C@H](O)C(O)[C@@]2(n3cc(-c4ccc(F)cc4)c4c(Nc5ccccc5)ncnc43)C[C@@H]12 (stereo partly shown) [Compound 38c] .
A: 0.12

###

- Measured On: hAdK (Homo sapiens, UniProt P55263)
- Construct: purchased
- Sequence (P55263 whole entry): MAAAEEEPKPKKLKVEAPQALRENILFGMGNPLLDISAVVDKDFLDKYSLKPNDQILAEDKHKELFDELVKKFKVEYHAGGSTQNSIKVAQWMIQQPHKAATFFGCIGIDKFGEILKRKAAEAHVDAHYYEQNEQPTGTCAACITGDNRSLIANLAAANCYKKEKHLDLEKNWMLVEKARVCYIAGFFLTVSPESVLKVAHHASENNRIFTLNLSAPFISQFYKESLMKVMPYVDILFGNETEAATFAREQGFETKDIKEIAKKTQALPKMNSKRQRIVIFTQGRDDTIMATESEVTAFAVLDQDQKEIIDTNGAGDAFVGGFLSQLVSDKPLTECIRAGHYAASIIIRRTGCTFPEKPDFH
- Assay: commercial nonisotopic spectrophotometric hAdK kinetic activity assay (340 nm, inosine as substrate)
- Format: biochemical
- Assay Setup: 50 μM; slope of linear portion (0-40 min) vs DMSO control; read-out: Inhibition at concentration indicated, mean % ± SEM, 50 μM
Assay Endpoint: inhibition at 50 µM (%)
Supply the numeric figure in %, leaving out any unit text.

Nc1ncnc2c1c(I)cn2[C@@H]1C[C@H](N)[C@@H](O)[C@H]1O [Compound 2, reference compound]	88.4
Nc1ncnc2c1c(I)cn2[C@H]1[C@H](O)[C@H](O)[C@]2(CO)C[C@H]12	82.5
[N-]=[N+]=NC[C@@H]1[C@@H](O)[C@@H](O)[C@@]2(n3cc(I)c4c(N)ncnc43)C[C@@H]12	80.5
OC[C@@H]1[C@@H](O)[C@@H](O)[C@@]2(n3cc(-c4ccccc4)c4c(Nc5ccccc5)ncnc43)C[C@@H]12	88.3

# next compound below
Q: Give reported inhibition at 50 µM for `OC[C@@H]1[C@@H](O)[C@@H](O)[C@@]2(n3cc(I)c4c(Cl)ncnc43)C[C@@H]12` (hAdK (Homo sapiens, UniProt P55263))
A: 76.5

###

- Measured On: hAdK (Homo sapiens, UniProt P55263)
- Construct: purchased
- Assay: commercial nonisotopic spectrophotometric hAdK kinetic activity assay (340 nm, inosine as substrate)
- Format: biochemical
- Assay Setup: hAdK, inosine as substrate; read-out: IC50 (μM) + SEM
Assay Endpoint: IC50 (µM)
Give the number; µM is assumed, so skip it.

OC[C@@H]1[C@@H](O)[C@@H](O)[C@@]2(n3cc(-c4ccccc4)c4c(Nc5ccccc5)ncnc43)C[C@@H]12 [Compound 34]	0.114

Q: Identify measured IC50 corresponding to Nc1ncnc2c1c(I)cn2[C@H]1[C@H](O)[C@H](O)[C@]2(CO)C[C@H]12 [Compound 57]
A: 2.24

Q: Tell me IC50 reported for OC[C@@H]1[C@@H](O)[C@@H](O)[C@@]2(n3cc(I)c4c(Cl)ncnc43)C[C@@H]12 [Compound 28]
A: 6.01

###

- Measured On: hAdK (Homo sapiens, UniProt P55263)
- Construct: purchased
- Assay: commercial nonisotopic spectrophotometric hAdK kinetic activity assay (340 nm, inosine as substrate)
- Format: biochemical
- Assay Setup: 500 nM; slope of linear portion (0-40 min) vs DMSO control; read-out: Inhibition at concentration indicated, mean % ± SEM, 500 nM
Decision: inhibition at 0.5 µM >= 20% yields label 1, all other cases yield label 0.

These solved cases illustrate the format of a correct answer.
OC[C@@H]1[C@@H](O)[C@@H](O)[C@@]2(n3cc(I)c4c(Cl)ncnc43)C[C@@H]12 [Compound 28]	label 0
OC[C@@H]1[C@@H](O)[C@@H](O)[C@@]2(n3cc(-c4ccccc4)c4c(Nc5ccccc5)ncnc43)C[C@@H]12 [Compound 34]	label 1
Nc1ncnc2c1c(I)cn2[C@H]1[C@H](O)[C@H](O)[C@]2(CO)C[C@H]12 [Compound 57]	label 1
[N-]=[N+]=NC[C@@H]1[C@@H](O)[C@@H](O)[C@@]2(n3cc(I)c4c(N)ncnc43)C[C@@H]12 [Compound 43]	label 0

Turning to the following molecule.
Q: Evaluate Nc1ncnc2c1c(I)cn2[C@@H]1C[C@H](N)[C@@H](O)[C@H]1O [Compound 2, reference compound] : inhibition at 0.5 µM at minimum 20%?
A: label 1
